Recorded values, source the supplement of paper PMC4466140.

Measured SPOT peptide array binding signal intensity by item
ASSAYED_TARGET: CaLsb1
ASSAY: SPOT peptide array binding signal intensity (averaged, normalized) (arbitrary units (background-subtracted, floor 0; scale differs between SH3 domains)); higher = stronger binding of the SH3 domain to the peptide
ASSAY_METRIC: SPOT peptide array binding signal intensity

1) TPTSGPPLLPPRNTM; 5.5
2) PIVPSSPAPPLPLSG; ≤ 0
3) FVLRYYILIPHEQWD; 6.5
4) QQEQNTPPLPPKPKS; 0.5
